assay_text: solvent given as SMILES
condition: in OCC(F)(F)F
observed_property: emission maximum (nm)
Number only, in nm; omit the unit.

Some entries whose results are on file:
molecule_smiles | display_unit | emission maximum
CNC1=C2C=CC=[N+]2[B-](F)(F)n2cccc21 | nm | 449
N#Cc1cccc2[nH]ccc12 | nm | 394

# emission maximum (molecule: `CCC1=C(C)C2=Cc3cccn3[B-](F)(F)[N+]2=C1C` ) is 515.5

# emission maximum (molecule: `C#CCNC1=C2C=CC=[N+]2[B-](F)(F)n2cccc21` ) is 480.5

----------
Reported emission maximum is given for each of the following molecules.
assay_text: solvent given as SMILES
condition: in ClC(Cl)Cl
Number only, in nm; omit the unit.

Some entries whose results are on file:
molecule | emission maximum [nm]
COC(=O)CN1C(=O)c2cc3ccc(N(C)C)cc3cc2C1=O | 509
Cc1ccc(C2CC(=O)Oc3c2c2nc4ccccc4nc2c2ccccc32)cc1 (stereo not drawn) | 440
O=[N+]([O-])c1ccc(C#Cc2ccc3ccccc3c2)cc1 | 536
CCCCCCc1ccc(-n2c3c4cccc(OC)c4nc(-c4ccc(C)cc4)c3c3c2c2c(-c4ccc(C)cc4)nc4c(OC)cccc4c2n3-c2ccc(CCCCCC)cc2)cc1 | 464
CC(C)(C)NC(=O)c1ccc2ccc3cccc4ccc1c2c34 | 382

# emission maximum (molecule: `CCN(CC)c1ccc2cc(/C=C/C(=O)/C=C(O)/C=C/c3cc4ccc(N(CC)CC)cc4oc3=O)c(=O)oc2c1` ) is 581

# emission maximum (molecule: `CC(C)(C)c1ccc2c(c1)c1cc(C(C)(C)C)ccc1n2-c1cccc(-c2nc(-c3cccc(-n4c5ccc(C(C)(C)C)cc5c5cc(C(C)(C)C)ccc54)c3)nc(-c3cccc(P(=O)(c4ccccc4)c4ccccc4)c3)n2)c1` ) is 511.48

# emission maximum (molecule: `C(#Cc1cccs1)C(C#Cc1cccs1)=Cc1ccc(C=C(C#Cc2cccs2)C#Cc2cccs2)s1` ) is 550

----------
Reported emission maximum is given for each of the following molecules.
assay_text: solvent given as SMILES
condition: in ClC(Cl)Cl
Number only, in nm; omit the unit.

Some entries whose results are on file:
molecule | emission maximum, nm
Cc1c2c(c(C)c3ccccc13)C1=CC3Nc4ccccc4NC3C=C12 (stereo not given) | 502
CN(C)CCN(Cc1c2ccccc2cc2ccccc12)c1ccc([N+](=O)[O-])cc1[N+](=O)[O-] | 394
CC(C)(C)n1c(=O)c2cc3ccc4cccc5ccc(c2c1=O)c3c45 | 451
FC(F)(F)c1ccc2oc3nc4oc5ccc(N6c7ccccc7Oc7ccccc76)cc5c4cc3c2c1 | 489

Consider the additional molecule presented here.
# emission maximum (molecule: `c1ccc2c(-c3cc(-c4nccs4)nc(-c4nccs4)c3)cccc2c1` ) is 377

----------
assay_text: solvent given as SMILES
condition: in C1CCCCC1
Reported emission maximum is given for each of the following molecules.
Number only, in nm; omit the unit.

Some entries whose results are on file:
molecule_smiles | observed_property | value_measured
CC(C)(C)c1ccc2c3c(c4ccc(C(C)(C)C)cc4c2c1)=[N+]1C(=C(c2ccccc2)c2cc4c5ccc(C(C)(C)C)cc5c5cc(C(C)(C)C)ccc5c4n2[B-]1(F)F)C=3 | emission maximum | 709
CC(C)(C)c1ccc(-c2cc3c(-c4ccc(C(C)(C)C)cc4)c4cccc5c(-c6ccc(C(C)(C)C)cc6)cc6c(-c7ccc(C(C)(C)C)cc7)c7cccc2c7c3c6c54)cc1 | emission maximum | 463
Nc1ccc2c(c1)Cc1ccccc1-2 | emission maximum | 347

# emission maximum (molecule: `CN(C)c1ccc(/C=C/C=C2\CC/C(=C\C=C\c3ccc(N(C)C)cc3)C2=O)cc1` ) is 500
